Consider the following sequences and their measured Binding Score readings.
# assayed_target: MHC-II DRB1*15:01 (Homo sapiens, UniProt P01903+P01911)
# Construct: purchased ProImmune
# protocol_description: Cell-free REVEAL class II binding assay
# measurement_setup: signal of test peptide as percentage of allele-specific positive control peptide, fluorescence, conformation-specific monoclonal antibody
# Description: We used a proprietary high throughput, REVEAL binding assay (ProImmune, www.proimmune.com) to estimate the binding of individual test peptides to the following MHC-II variants: DRB1*03:01, DRB1*04:01, DRB1*07:01, DRB1*11:01, DRB1*15:01 and DRB1*15:03 [28]. […] The peptide-MHC-II complex is detected by an increase in a fluorescence signal due to the binding of a specific monoclonal antibody. […]
Just the number in %, nothing appended.

Look over these answered cases.
IN: So what's the measured Binding Score for this one? DGAYAPVLQDFRSLN [synthetic wild type FVIII 15 mer peptide, region of ns-SNP D1241E]
OUT: 0.0

IN: Fill in the blank: the reported Binding Score of AWRPQVNNPKEWLQV [synthetic wild type FVIII 15 mer peptide] is ____.
OUT: 0.5

IN: What does the data say about its Binding Score? Entry: AVGVSYWKASEGAEY [synthetic wild type FVIII 15 mer peptide]
OUT: 17.0

IN: Consider the sequence shown here: KMVYEDTLTLFPFSG [synthetic wild type FVIII 15 mer peptide] What is its recorded Binding Score?
OUT: 3.0

Moving on to another sequence below.
IN: Return reported Binding Score; argument: RIHPQSWVHQIALRM [synthetic wild type FVIII 15 mer peptide]
OUT: 8.3

----------
# assayed_target: MHC-II DRB1*15:01 (Homo sapiens, UniProt P01903+P01911)
# Construct: purchased ProImmune
# protocol_description: Cell-free REVEAL class II binding assay
# measurement_setup: signal of test peptide as percentage of allele-specific positive control peptide, fluorescence, conformation-specific monoclonal antibody
Would you mind labelling by Binding Score? At or over 5% is met, under is not met.

IN: Could you please find out whether IARYIRLHPTHYSIR [synthetic wild type FVIII 15 mer peptide] has Binding Score that meets 5% or exceeds it?
OUT: met

IN: Answer whether Binding Score of YSLDGKKWQTYRGNS [synthetic wild type FVIII 15 mer peptide] is greater than or equal to 5%.
OUT: met

IN: Does Binding Score meet or surpass 5% for DIEKTDPWFAHRTPM [synthetic wild type FVIII 15 mer peptide, region of ns-SNP R776G] ?
OUT: not met

IN: Does the sequence LQVDFQKTMKVTGVT [synthetic wild type FVIII 15 mer peptide, region of ns-SNP M2238V] have recorded Binding Score that is 5% or more?
OUT: not met

Next:
IN: Does FSSLYISQFIIMYSL [synthetic wild type FVIII 15 mer peptide] have a reported Binding Score of at least 5%?
OUT: met

IN: Answer whether Binding Score of GPTKSDPRCLTRYYS [synthetic wild type FVIII 15 mer peptide] is greater than or equal to 5%.
OUT: met

IN: Could you tell me if the measured Binding Score of IFNPPIIARYIRLHP [synthetic wild type FVIII 15 mer peptide] reaches 5% or more?
OUT: met

IN: Is Binding Score for IIMYSLDGKKWQTYR [synthetic wild type FVIII 15 mer peptide] at or above 5%?
OUT: met

----------
# assayed_target: MHC-II DRB1*15:01 (Homo sapiens, UniProt P01903+P01911)
# Construct: purchased ProImmune
# protocol_description: Cell-free REVEAL class II binding assay
# measurement_setup: signal of test peptide as percentage of allele-specific positive control peptide, fluorescence, conformation-specific monoclonal antibody
Class Satisfied: Binding Score at least 0.9%. Class Not satisfied: Binding Score below 0.9%.

These recorded examples may help you get a feel for the data.
IN: Please indicate if the recorded Binding Score for AHRTPMPKIQNVSSS [synthetic wild type FVIII 15 mer peptide, region of ns-SNP R776G] meets or exceeds 0.9%.
OUT: Not satisfied

IN: Has PRCLTRYYSSFVNME [synthetic wild type FVIII 15 mer peptide] a recorded Binding Score greater than or equal to 0.9%?
OUT: Satisfied

IN: Does the reported Binding Score for TVEDGPTKSDPRCLT [synthetic wild type FVIII 15 mer peptide] fall at or above the 0.9% mark?
OUT: Not satisfied

IN: Check the entry SYWKASEGAEYDDQT [synthetic wild type FVIII 15 mer peptide] : does Binding Score equal or exceed 0.9%?
OUT: Not satisfied

IN: Decide: Binding Score of LFLLSTRQNVEGSYD [synthetic wild type FVIII 15 mer peptide, region of ns-SNP D1241E] >= 0.9%?
OUT: Satisfied

IN: Please indicate if the recorded Binding Score for SQFIIMYSLDGKKWQ [synthetic wild type FVIII 15 mer peptide] meets or exceeds 0.9%.
OUT: Satisfied

Turning now to a further sequence:
IN: Reported Binding Score at or above 0.9%? PLLTRYLRIHPQSWV [synthetic wild type FVIII 15 mer peptide]
OUT: Satisfied

----------
Reported Binding Score values for a set of sequences
# assayed_target: MHC-II DRB1*15:01 (Homo sapiens, UniProt P01903+P01911)
# Construct: purchased ProImmune
# protocol_description: Cell-free REVEAL class II binding assay
# measurement_setup: signal of test peptide as percentage of allele-specific positive control peptide, fluorescence, conformation-specific monoclonal antibody
Numeric only. Scale: %

Examples with answers:
IN: I have this sequence here, SLHAVGVSYWKASEG [synthetic wild type FVIII 15 mer peptide] , and I need its recorded Binding Score.
OUT: 18.1

IN: Binding Score for NNPKEWLQVDFQKTM [synthetic wild type FVIII 15 mer peptide, region of ns-SNP M2238V] ?
OUT: 0.1

IN: What value of measured Binding Score is listed for YISQFIIMYSLDGKK [synthetic wild type FVIII 15 mer peptide] ?
OUT: 602.6

IN: Suppose we examine the sequence TRYLRIHPQSWVHQI [synthetic wild type FVIII 15 mer peptide] ; what Binding Score value has been reported?
OUT: 819.2

IN: Quick one: Binding Score of LSTRQNVEGSYDGAY [synthetic wild type FVIII 15 mer peptide, region of ns-SNP D1241E] ?
OUT: 0.0

IN: Which Binding Score is listed for PPLLTRYLRIHPQSW [synthetic wild type FVIII 15 mer peptide] ?
OUT: 403.3

IN: # get_value(readout='Binding Score', item= HKMVYEDTLTLFPFS [synthetic wild type FVIII 15 mer peptide] )
OUT: 2.4

# next sequence below
IN: Find the recorded Binding Score belonging to MKVTGVTTQGVKSLL [synthetic wild type FVIII 15 mer peptide, region of ns-SNP M2238V] and report it.
OUT: 1.4

----------
# assayed_target: MHC-II DRB1*07:01 (Homo sapiens, UniProt P01903+P01911, A100R/A102G/A103Q/D57E/D86V/E43K/F76Y/K127E/L162R/M171V/P40G/Q125H/Q99D/R33Q/R42Y/R54Q/S133A/S66F/T210M/V115G/Y107V/Y59L/Y89S)
# protocol_description: Cell-free REVEAL class II binding assay
# measurement_setup: signal of test peptide as percentage of allele-specific positive control peptide, fluorescence, conformation-specific monoclonal antibody
Entries annotated with measured Binding Score
State just the number; it will be interpreted in %.

Before answering, review these 2 worked examples.
IN: Field request: Binding Score | item: YISQFIIMYSLDGKK [synthetic wild type FVIII 15 mer peptide]
OUT: 0.0

IN: Query (sequence): AVGVSYWKASEGAEY [synthetic wild type FVIII 15 mer peptide] ; field requested: Binding Score
OUT: 0.0

***
IN: What value of Binding Score has been reported for the following sequence? FSSLYISQFIIMYSL [synthetic wild type FVIII 15 mer peptide]
OUT: 0.0

IN: What value of measured Binding Score is listed for SYWKASEGAEYDDQT [synthetic wild type FVIII 15 mer peptide] ?
OUT: 0.0

----------
// reported Stability Index for each item listed
# assayed_target: MHC-II DRB1*03:01 (Homo sapiens, UniProt P01903+P01911, A100K/A102G/A103R/A169T/F55Y/I96L/K41T/L162R/M171V/P40S/Q125H/Q178H/Q39Y/R42S/S66N/T106N/T262R/W38E/Y61H)
# Sequence (P01903 26-254 limits assumed, other chains not shown): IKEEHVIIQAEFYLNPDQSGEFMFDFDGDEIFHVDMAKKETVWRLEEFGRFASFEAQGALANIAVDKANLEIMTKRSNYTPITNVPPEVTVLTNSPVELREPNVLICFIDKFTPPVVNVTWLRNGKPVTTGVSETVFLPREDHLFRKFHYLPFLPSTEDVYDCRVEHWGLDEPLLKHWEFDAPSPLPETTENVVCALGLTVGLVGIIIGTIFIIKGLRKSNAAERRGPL
# protocol_description: Cell-free REVEAL class II stability assay
# measurement_setup: half-life of peptide-MHC-II complex (h, capped at 120) x Binding Score / 100, conformational ELISA

Some sequences with known Stability Index results, for comparison:
IN: What value of measured Stability Index is listed for SYDGAYAPVLQDFRS [synthetic wild type FVIII 15 mer peptide, region of ns-SNP D1241E] ?
OUT: 0.1

IN: What does the record list as Stability Index for SGYTFKHKMVYEDTL [synthetic wild type FVIII 15 mer peptide] ?
OUT: 0.0

IN: Fill in the blank: the reported Stability Index of KTDPWFAHRTPMPKI [synthetic wild type FVIII 15 mer peptide, region of ns-SNP R776G] is ____.
OUT: 0.0

IN: Looking for the measured Stability Index of YNIYPHGITDVRPLY [synthetic wild type FVIII 15 mer peptide, region of ns-SNP R484H] , can you help?
OUT: 0.0

IN: Consider the sequence NPPIIARYIRLHPTH [synthetic wild type FVIII 15 mer peptide] and give its measured Stability Index.
OUT: 0.0

IN: Consider the sequence shown here: LFLLSTRQNVEGSYD [synthetic wild type FVIII 15 mer peptide, region of ns-SNP D1241E] What is its recorded Stability Index?
OUT: 17.5

Kindly consider the entry below.
IN: Record request: Stability Index value, item TRYLRIHPQSWVHQI [synthetic wild type FVIII 15 mer peptide]
OUT: 0.0
